Please go through the items and note down their viscosity.
condition info: 343.15 K; 101.33 kPa; Liquid; Concentric cylinders viscometry
Record the value in mPa·s, omitting the unit from your answer.

Entry CCCCCCCCCC(C)CCCCCC (stereo unspecified) [7-methylhexadecane] ; viscosity = 1.41

Record CCCCCCCC(C)C [2-methylnonane] , field viscosity: 0.475

Lab note: CCCCCCCCC(C)C [2-methyldecane] gave viscosity of 0.575

For CCCCCCCCC(C)CC (stereo unspecified) [3-methylundecane] the molecule record lists viscosity as 0.68

The molecule identified as CCCCCCCCCCCCCC(C)C [2-methylpentadecane] registered its viscosity at 1.33

viscosity recorded for this molecule, CCC(C)CCC(C)CC (stereo unspecified) [3,6-dimethyloctane] , is 0.453
